# Tested on: L1210 leukemia ip in BDF1 mice, survival T/C
# assay-overview: NCI In Vivo Anticancer Drug Screen. Data for tumor model L1210 Leukemia (intraperitoneal) in B6D2F1 (BDF1) mice
# condition-details: endpoint: mean survival time; dose: 400.0 mg/kg/injection; schedule: Q04DX003 (ip); vehicle: Klucel (hydroxypropylcellulose) (HPC); higher = longer survival
Inconclusive results and toxic doses are left out.
Quick reference: T/C of the listed items.
measured-metric: T/C

CC(=O)CC(=O)Nc1ccccn1	98 % of control
COc1ccc(OC(=O)Nc2ccccc2Cl)cc1	101 % of control
COC(=O)c1ccc(OS(=O)(=O)c2cccc([N+](=O)[O-])c2)cc1	90 % of control
CC1OCC2OC(C)OC(C(COC(=O)c3ccc([N+](=O)[O-])cc3)OS(C)(=O)=O)C2O1 (stereo unspecified)	96 % of control
O=C(Nc1ccc(NC(=O)C(Cl)Cl)cc1)C(Cl)Cl	90 % of control
CCOC(=O)C1(C(=O)OCC)CCC(O)N1C(=O)Cc1ccccc1[N+](=O)[O-] (stereo unspecified)	99 % of control
